This section presents molecules with their documented IC50 values.
target: KLK1 (Homo sapiens)
Sequence (P06870 25-262): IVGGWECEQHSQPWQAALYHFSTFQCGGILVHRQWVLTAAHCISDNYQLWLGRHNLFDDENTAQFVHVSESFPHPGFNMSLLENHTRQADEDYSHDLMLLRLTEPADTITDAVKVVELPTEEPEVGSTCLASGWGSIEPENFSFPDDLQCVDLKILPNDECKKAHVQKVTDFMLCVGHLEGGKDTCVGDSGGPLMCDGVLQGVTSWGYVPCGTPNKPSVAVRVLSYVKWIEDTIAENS
MEASURE NAME: IC50

MOLECULE: Nc1nccc2c(NCC34CC(COC5Cc6nccn6C5)(C3)C4)cccc12 (stereo not drawn)
RESULT: 3 to 10 µM
//
MOLECULE: Clc1ccc2c(NCC34CC(COc5ccn6ccnc6c5)(CCO3)C4)ccnc2c1
RESULT: 10 to 40 µM
//
MOLECULE: Nc1nccc2c(NCC34CC(COC5CCn6ccnc6C5)(C3)C4)cccc12 (single isomer, unassigned)
RESULT: 3 to 10 µM
//
MOLECULE: Nc1nccc2c(NCC34CC(COc5ccn6ccnc6c5)(C3)C4)cccc12
RESULT: 3 to 10 µM
//
MOLECULE: Cc1cn2ccc(OCC34CC(CNc5cccc6c(N)nccc56)(C3)C4)cc2n1
RESULT: 1 to 3 µM
//
MOLECULE: Cn1ccc(OCC23CN(C(=O)NCc4ccccc4)C(CNc4cccc5c(N)nccc45)(C2)C3)cc1=O
RESULT: 3 to 10 µM
//
MOLECULE: Cc1cc2c(NCC34CC(COc5ccn6ccnc6c5)(CCO3)C4)ccnc2[nH]1
RESULT: > 40 µM
//
MOLECULE: Nc1nccc2c(NCC34COC(COc5ccc6nccn6c5)(C3)C4)cccc12
RESULT: 3 to 10 µM
//
MOLECULE: Nc1nccc2c(NC[C@H]3C[C@H](COc4ccn5ccnc5c4)C3)cccc12
RESULT: 1 to 3 µM
//
MOLECULE: Cc1cnc2ccc(OCC34CC(CNc5cccc6c(N)nccc56)(CO3)C4)cn12
RESULT: 1 to 3 µM
//
MOLECULE: Nc1nccc2c(NCC34CC(COc5ccn6ccnc6c5)(CO3)C4)cccc12
RESULT: 3 to 10 µM
//
MOLECULE: Cc1cc2c(NCC34CC(COc5ccn6ccnc6c5)(CO3)C4)ccnc2[nH]1
RESULT: 10 to 40 µM
//
MOLECULE: Cn1ccc(OCC23CCOC(CNc4cccc5c(N)nccc45)(C2)C3)nc1=O
RESULT: 10 to 40 µM
//
MOLECULE: Nc1nccc2c(NCC34CC(CN5CCn6ccnc6C5)(C3)C4)cccc12
RESULT: 3 to 10 µM
//
MOLECULE: Cn1ccc(OCC23CC(CNc4cccc5c(N)nccc45)(CN2C(=O)OCc2ccccc2)C3)cc1=O
RESULT: > 4 µM
//
MOLECULE: Nc1nccc2c(NCC34CC(COc5ccc6nc[nH]c6c5)(C3)C4)cccc12
RESULT: 3 to 10 µM
//
MOLECULE: Cn1ccc(OCC23CC(CNc4cccc5c(N)nccc45)(CO2)C3)cc1=O
RESULT: 10 to 40 µM
//
MOLECULE: CN1Cc2ccc(OCC34COC(CNc5cccc6c(N)nccc56)(C3)C4)cc2C1=O
RESULT: 3 to 10 µM
//
MOLECULE: Nc1nccc2c(NCC34CC(COc5ccn6cnnc6c5)(CO3)C4)cccc12
RESULT: 1 to 3 µM
//
MOLECULE: Cn1ccc(OCC23COC(CNc4cccc5c(N)nccc45)(C2)C3)cc1=O
RESULT: 3 to 10 µM
//
MOLECULE: Nc1nccc2c(NCC34COC(COc5ccc6nnc(C(F)F)n6n5)(C3)C4)cccc12
RESULT: 3 to 10 µM
